Molecular target: hPXR (Homo sapiens, UniProt O75469)
Sequence (O75469 1-434): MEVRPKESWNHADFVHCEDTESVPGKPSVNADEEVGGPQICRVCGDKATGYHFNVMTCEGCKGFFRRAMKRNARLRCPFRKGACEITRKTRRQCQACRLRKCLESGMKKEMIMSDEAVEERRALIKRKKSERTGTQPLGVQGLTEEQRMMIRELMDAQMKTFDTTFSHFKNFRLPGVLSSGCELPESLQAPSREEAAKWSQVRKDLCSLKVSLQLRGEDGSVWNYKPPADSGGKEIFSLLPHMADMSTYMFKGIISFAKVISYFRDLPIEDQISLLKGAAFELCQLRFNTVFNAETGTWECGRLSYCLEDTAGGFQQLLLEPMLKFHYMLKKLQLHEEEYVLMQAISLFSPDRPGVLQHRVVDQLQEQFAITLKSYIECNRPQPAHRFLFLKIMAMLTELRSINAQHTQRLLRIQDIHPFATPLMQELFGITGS
Experiment: hPXR reporter gene assay with DPX-2 cells, agonist mode
Conditions: read-out: DPX-2 hPXR EC50; DPX-2 cells, agonist mode
ASSAY METRIC: EC50

MOLECULE	RESULT
Cc1nn(C)c(Oc2ccccc2)c1/C=N/OCc1ccc(C(=O)OC(C)(C)C)cc1 [Z,E-fenpyroximate]	32.7 µM
CC(C)[C@H](C(=O)O[C@H](C#N)c1cccc(Oc2ccccc2)c1)c1ccc(Cl)cc1 [Esfenvalerate]	8.94 µM
CC1(C)C(C=C(Cl)Cl)C1C(=O)OC(C#N)c1ccc(F)c(Oc2ccccc2)c1 (stereo not drawn) [β-Cyfluthrin]	18.2 µM
